Biological target: Plasma kallikrein (Homo sapiens, UniProt P03952)
Sequence (P03952 20-390 limits assumed): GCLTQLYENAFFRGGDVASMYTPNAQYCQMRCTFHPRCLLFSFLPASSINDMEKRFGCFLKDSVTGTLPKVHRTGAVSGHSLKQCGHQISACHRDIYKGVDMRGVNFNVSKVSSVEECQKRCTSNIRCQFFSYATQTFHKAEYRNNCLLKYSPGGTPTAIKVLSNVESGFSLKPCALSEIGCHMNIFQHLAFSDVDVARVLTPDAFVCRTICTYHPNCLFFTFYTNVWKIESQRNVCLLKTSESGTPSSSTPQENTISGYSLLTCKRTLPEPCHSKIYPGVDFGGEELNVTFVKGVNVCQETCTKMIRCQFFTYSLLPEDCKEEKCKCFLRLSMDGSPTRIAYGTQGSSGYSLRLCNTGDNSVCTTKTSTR
Sequence (P03952 391-638 limits assumed): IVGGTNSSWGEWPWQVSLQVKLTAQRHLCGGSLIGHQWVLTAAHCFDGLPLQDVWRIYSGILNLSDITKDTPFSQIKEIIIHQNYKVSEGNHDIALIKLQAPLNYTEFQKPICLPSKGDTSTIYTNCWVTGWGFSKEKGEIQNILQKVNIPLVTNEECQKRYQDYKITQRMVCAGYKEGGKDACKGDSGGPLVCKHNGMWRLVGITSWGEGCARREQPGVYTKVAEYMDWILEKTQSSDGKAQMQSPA
Test: Inhibition of human plasma kallikrein using benzyloxycarbonyl-Phe-Arg-7-amino-4-methylcoumarin as substrate by fluorescence microplate reader analysis
Quantity measured: pIC50
pIC50 is a log-scale quantity: -log10 of the concentration expressed in molar.

query: # pIC50 lookup, item `COC(=O)c1nn(C(=O)c2ccccc2)c2ccc([N+](=O)[O-])cc12`
result: 4.95

###

Molecular target: UniProtKB P00734
Assay: Inhibition of human plasma thrombin using benzonyl-Phe-Val-Arg-7-amino-4-methylcoumarin as substrate by fluorescence microplate reader analysis
Recorded IC50 by entry
Give the quantity in nM, number only.

CCOC(=O)c1nn(C(=O)c2ccsc2)c2ccc([N+](=O)[O-])cc12    370
CCOC(=O)c1nn(C(=O)c2cccc(C)c2)c2ccc([N+](=O)[O-])cc12    480
CCOC(=O)c1nn(C(=O)c2cccc(C)c2)c2ccc(NC(C)=O)cc12    310

query: # IC50 lookup, item `COC(=O)c1nn(C(=O)c2ccccc2)c2ccc([N+](=O)[O-])cc12`
result: 830

query: # IC50 lookup, item `COC(=O)c1nn(C(=O)c2cccc(C)c2)c2ccc([N+](=O)[O-])cc12`
result: 1100

query: # IC50 lookup, item `CCOC(=O)c1nn(C(=O)c2cccc(OC)c2)c2ccc([N+](=O)[O-])cc12`
result: 82

query: # IC50 lookup, item `CCOC(=O)c1nn(C(=O)c2cccc(C)c2)c2ccc(NC(=O)C3CC3)cc12`
result: 160

query: # IC50 lookup, item `Cc1cccc(C(=O)n2nc(C#N)c3ccccc32)c1`
result: 1900

query: # IC50 lookup, item `COC(=O)c1nn(C(=O)c2cccc(C)c2)c2cc([N+](=O)[O-])ccc12`
result: 640

query: # IC50 lookup, item `CCOC(=O)c1nn(C(=O)c2cccc(C)c2)c2ccc(NC(=O)CC)cc12`
result: 39

###

Listed here: molecules with reported IC50 for Urokinase-type plasminogen activator (Homo sapiens).
Give the quantity in nM, number only.

Consider the reported IC50 for these molecules:
COC(=O)c1nn(C(=O)c2cccc(C)c2)c2ccc([N+](=O)[O-])cc12    440
COC(=O)c1nn(C(=O)c2cccc(C)c2)c2cc([N+](=O)[O-])ccc12    310

Now for the molecule whose IC50 we want.
query: What is its IC50 for Urokinase-type plasminogen activator (Homo sapiens)? Entry: `Cc1cccc(C(=O)n2nc(C#N)c3ccccc32)c1`
result: 6600

###

Experiment: Half life in phosphate buffer at pH 7.3
Type: physicochemical
Recorded t1/2 by entry
Give the quantity in min, number only.

COC(=O)c1nn(C(=O)c2cccc(C)c2)c2cc([N+](=O)[O-])ccc12    41.5

Now for the molecule whose t1/2 we want.
query: # t1/2 lookup, item `COC(=O)c1nn(C(=O)c2ccccc2)c2ccc([N+](=O)[O-])cc12`
result: 37.9

###

Target: Neutrophil elastase (Homo sapiens)
Sequence (P08246 whole entry): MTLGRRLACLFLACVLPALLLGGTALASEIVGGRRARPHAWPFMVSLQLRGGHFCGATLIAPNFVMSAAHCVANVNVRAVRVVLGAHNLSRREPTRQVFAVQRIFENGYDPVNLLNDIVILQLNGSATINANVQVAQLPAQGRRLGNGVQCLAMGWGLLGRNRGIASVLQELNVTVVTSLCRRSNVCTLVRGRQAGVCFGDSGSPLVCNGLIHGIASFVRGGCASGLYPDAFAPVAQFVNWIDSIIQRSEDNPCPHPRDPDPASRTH
Experiment: Inhibition of human neutrophil elastase using N-methylsuccinyl-Ala-Ala-Pro-Val-7-amino-4-methylcoumarin as substrate measured every 30 seconds for 10 mins by fluorescence microplate reader analysis
Quantity measured: IC50 (nM)
Give the quantity in nM, number only.

Consider the reported IC50 for these compounds:
CCOC(=O)c1nn(C(=O)c2cccc(C)c2)c2ccc(OC(F)(F)F)cc12    110
COC(=O)c1nn(C(=O)c2ccccc2)c2ccc([N+](=O)[O-])cc12    30
COC(=O)c1nn(C(=O)c2ccsc2)c2ccc([N+](=O)[O-])cc12    50
COC(=O)c1nn(C(=O)c2ccsc2)c2ccc(Br)cc12    160
CCOC(=O)c1nn(C(=O)c2ccsc2)c2ccc([N+](=O)[O-])cc12    30
CCCC(=O)Nc1ccc2c(c1)c(C(=O)OCC)nn2C(=O)c1cccc(C)c1    50

query: # IC50 lookup, item `CCOC(=O)c1nn(C(=O)c2cccc(C)c2)c2ccc(N(C)C)cc12`
result: 140

query: # IC50 lookup, item `CCOC(=O)c1nn(C(=O)c2cccc(C)c2)c2ccc(NC(=O)C3CC3)cc12`
result: 12

query: # IC50 lookup, item `CCOC(=O)c1nn(C(=O)c2cccc(C)c2)c2ccc(OC)cc12`
result: 140

query: # IC50 lookup, item `N#Cc1nn(C(=O)c2ccccc2)c2ccccc12`
result: 40

query: # IC50 lookup, item `COC(=O)c1nn(C(=O)c2cccc(C)c2)c2ccc(Br)cc12`
result: 80

###

Test: Half life in phosphate buffer at pH 7.3
Type: physicochemical
Quantity measured: t1/2
State the value with its unit after it.

query: # t1/2 lookup, item `COC(=O)c1nn(C(=O)c2cccc(C)c2)c2ccc([N+](=O)[O-])cc12`
result: 47.8 min

query: # t1/2 lookup, item `CCOC(=O)c1nn(C(=O)c2cccc(C)c2)c2ccc(NC(C)=O)cc12`
result: 78.8 min

query: # t1/2 lookup, item `CCOC(=O)c1nn(C(=O)c2cccc(C)c2)c2ccc(NC(=O)C3CC3)cc12`
result: 51.7 min

query: # t1/2 lookup, item `CCOC(=O)c1nn(C(=O)c2ccsc2)c2ccc([N+](=O)[O-])cc12`
result: 32.8 min

Values compiled from ChEMBL document CHEMBL2406965.
